target: GSPT1 (Homo sapiens, UniProt P15170+Q96SW2); experiment: GSPT1 Cellular Degradation Assay (DF15-GSPT1-ePL); format: cell-based; parameters: expressed in transfected cells; conditions: DF15-GSPT1-ePL cells, 20 hours
Sequence (P15170 whole entry): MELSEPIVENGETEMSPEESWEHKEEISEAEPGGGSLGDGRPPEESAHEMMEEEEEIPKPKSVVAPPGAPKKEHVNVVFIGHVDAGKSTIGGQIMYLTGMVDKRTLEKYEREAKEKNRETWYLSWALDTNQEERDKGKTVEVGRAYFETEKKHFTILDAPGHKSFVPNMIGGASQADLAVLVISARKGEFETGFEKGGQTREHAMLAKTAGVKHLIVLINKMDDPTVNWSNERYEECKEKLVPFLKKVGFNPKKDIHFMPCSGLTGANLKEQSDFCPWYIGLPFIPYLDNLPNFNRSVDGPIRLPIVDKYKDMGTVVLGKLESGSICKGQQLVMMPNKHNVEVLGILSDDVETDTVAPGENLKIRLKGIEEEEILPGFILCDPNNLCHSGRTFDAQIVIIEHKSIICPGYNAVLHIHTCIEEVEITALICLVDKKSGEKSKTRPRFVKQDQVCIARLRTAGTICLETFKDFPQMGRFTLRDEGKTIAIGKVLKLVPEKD
Sequence (Q96SW2 whole entry): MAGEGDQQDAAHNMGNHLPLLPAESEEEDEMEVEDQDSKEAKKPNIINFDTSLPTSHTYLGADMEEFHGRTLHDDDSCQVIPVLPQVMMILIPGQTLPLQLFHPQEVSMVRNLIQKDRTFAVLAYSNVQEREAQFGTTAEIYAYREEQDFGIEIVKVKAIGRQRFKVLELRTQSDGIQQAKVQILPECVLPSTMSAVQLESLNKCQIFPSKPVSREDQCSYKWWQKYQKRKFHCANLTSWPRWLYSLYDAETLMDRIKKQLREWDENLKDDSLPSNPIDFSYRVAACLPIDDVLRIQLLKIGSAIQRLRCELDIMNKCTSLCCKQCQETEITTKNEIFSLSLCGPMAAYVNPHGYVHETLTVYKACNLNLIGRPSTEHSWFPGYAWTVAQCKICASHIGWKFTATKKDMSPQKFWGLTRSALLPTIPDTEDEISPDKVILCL
Sequence (Q16531 whole entry partner): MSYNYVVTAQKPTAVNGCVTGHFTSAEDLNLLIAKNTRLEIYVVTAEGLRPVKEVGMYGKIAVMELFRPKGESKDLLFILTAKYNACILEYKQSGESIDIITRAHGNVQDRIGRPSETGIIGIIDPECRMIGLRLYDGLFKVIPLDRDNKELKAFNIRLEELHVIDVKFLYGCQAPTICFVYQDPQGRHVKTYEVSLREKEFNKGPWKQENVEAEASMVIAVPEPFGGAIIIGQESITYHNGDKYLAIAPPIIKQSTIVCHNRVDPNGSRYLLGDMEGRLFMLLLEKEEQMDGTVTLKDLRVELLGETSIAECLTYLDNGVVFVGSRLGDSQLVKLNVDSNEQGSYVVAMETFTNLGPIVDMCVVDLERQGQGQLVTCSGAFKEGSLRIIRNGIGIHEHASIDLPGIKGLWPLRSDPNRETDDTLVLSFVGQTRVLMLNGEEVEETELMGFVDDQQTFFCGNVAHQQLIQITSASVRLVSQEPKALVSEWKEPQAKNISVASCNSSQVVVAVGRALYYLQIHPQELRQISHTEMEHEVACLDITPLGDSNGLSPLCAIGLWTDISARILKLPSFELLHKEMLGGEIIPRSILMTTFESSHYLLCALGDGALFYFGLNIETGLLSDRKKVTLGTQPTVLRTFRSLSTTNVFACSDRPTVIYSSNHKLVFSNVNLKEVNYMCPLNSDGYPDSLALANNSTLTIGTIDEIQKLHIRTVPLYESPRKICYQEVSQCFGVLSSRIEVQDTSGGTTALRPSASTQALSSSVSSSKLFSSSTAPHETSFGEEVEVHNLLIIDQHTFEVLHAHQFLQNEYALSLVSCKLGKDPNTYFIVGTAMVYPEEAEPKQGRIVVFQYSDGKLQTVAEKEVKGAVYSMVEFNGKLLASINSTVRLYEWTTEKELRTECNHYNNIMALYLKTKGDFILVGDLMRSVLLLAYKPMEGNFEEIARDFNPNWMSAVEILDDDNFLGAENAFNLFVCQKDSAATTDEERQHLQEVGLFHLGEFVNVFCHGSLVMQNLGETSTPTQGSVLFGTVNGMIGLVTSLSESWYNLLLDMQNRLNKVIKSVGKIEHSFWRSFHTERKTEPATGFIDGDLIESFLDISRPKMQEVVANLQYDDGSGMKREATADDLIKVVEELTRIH
Examples of compounds with documented Dmax follow.
PROPERTY LABEL: Dmax (%)

- COMPOUND: "CCOc1c(COC(=O)Nc2ccc(Oc3ccccc3)cc2)ccc2c1C(=O)N(C1CCC(=O)NC1=O)C2 (stereo not shown)"
  RESULT VALUE: 13
- COMPOUND: "O=C1CCC(N2Cc3ccc(COC(=O)Nc4ccc(Oc5ccc(F)c(F)c5)cc4)c(O[C@@H]4CCOC4)c3C2=O)C(=O)N1 (stereo partly shown)"
  RESULT VALUE: 19
- COMPOUND: "COc1c(COC(=O)Nc2ccc(Oc3ccccc3Cl)cc2)ccc2c1C(=O)N(C1CCC(=O)NC1=O)C2 (stereo not shown)"
  RESULT VALUE: 40
- COMPOUND: "O=C1CCC(N2Cc3ccc(COC(=O)Nc4ccc(Oc5ccc(F)c(F)c5)cc4)c(O[C@H]4CC[C@H](O)CC4)c3C2=O)C(=O)N1 (stereo partly shown)"
  RESULT VALUE: 27
- COMPOUND: "O=C1CCC(N2Cc3ccc(COC(=O)Nc4ccc(Oc5ccc(F)c(F)c5)cc4)c(OC4CCCOCC4)c3C2=O)C(=O)N1 (stereo not shown)"
  RESULT VALUE: 0
- COMPOUND: "COc1c(COC(=O)Nc2ccc(Oc3ccccc3)cc2)ccc2c1C(=O)N(C1CCC(=O)NC1=O)C2 (stereo not shown)"
  RESULT VALUE: 32
- COMPOUND: "O=C1CCC(N2Cc3ccc(COC(=O)Nc4ccc(Oc5ccc(F)c(F)c5)cc4)c(Oc4ccccc4)c3C2=O)C(=O)N1 (stereo not shown)"
  RESULT VALUE: 41

---

Each record here notes measured Ratio of GSPT1 DC50/Cyclin E1 DC50.
biological target: Cyclin E1 (Homo sapiens, UniProt P24864+Q96SW2); test: Cyclin E1 Cellular Degradation Assay (MSD); type: cell-based; design: endogenous in cells; host or cells: OVCAR3; conditions: selectivity for degradation of Cyclin E1 over GSPT1
Sequence (P24864 whole entry): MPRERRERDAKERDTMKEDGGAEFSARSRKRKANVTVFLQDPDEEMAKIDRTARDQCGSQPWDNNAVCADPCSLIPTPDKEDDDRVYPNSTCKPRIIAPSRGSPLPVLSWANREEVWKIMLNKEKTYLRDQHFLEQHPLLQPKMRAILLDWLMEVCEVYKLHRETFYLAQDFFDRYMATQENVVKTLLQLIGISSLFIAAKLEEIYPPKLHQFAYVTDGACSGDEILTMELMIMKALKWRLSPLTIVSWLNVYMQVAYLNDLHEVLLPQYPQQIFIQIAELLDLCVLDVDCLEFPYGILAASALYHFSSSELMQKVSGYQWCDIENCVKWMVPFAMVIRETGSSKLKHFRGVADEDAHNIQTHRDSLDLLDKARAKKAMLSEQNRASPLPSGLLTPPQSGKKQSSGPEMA
Sequence (Q96SW2 whole entry): as the sequence (Q96SW2 whole entry) above
Sequence (Q16531 whole entry partner): as the sequence (Q16531 whole entry partner) above

- COMPOUND: "O=C1CCC(N2Cc3ccc(COC(=O)Nc4ccc(Oc5cc(F)cc(F)c5)cc4F)c(OC4CCOCC4)c3C2=O)C(=O)N1 (stereo not drawn)"
  TESTED ON: "Cyclin E1 (Homo sapiens, UniProt P24864+Q96SW2)"
  Ratio of GSPT1 DC50/Cyclin E1 DC50: ">474"
- COMPOUND: "O=C1CCC(N2Cc3ccc(COC(=O)Nc4ccc(Oc5ccc(F)c(F)c5)cc4)c(OC4CCCCC4)c3C2=O)C(=O)N1 (stereo not drawn)"
  TESTED ON: "Cyclin E1 (Homo sapiens, UniProt P24864+Q96SW2)"
  Ratio of GSPT1 DC50/Cyclin E1 DC50: ">547"
- COMPOUND: "O=C1CCC(N2Cc3ccc(COC(=O)Nc4ccc(Oc5ccc(F)c(F)c5)cc4)c(O[C@@H]4CCCOC4)c3C2=O)C(=O)N1 (stereo partly drawn)"
  TESTED ON: "Cyclin E1 (Homo sapiens, UniProt P24864+Q96SW2)"
  Ratio of GSPT1 DC50/Cyclin E1 DC50: ">418"
- COMPOUND: "COc1c(COC(=O)Nc2ccc(Oc3ccccc3Cl)cc2)ccc2c1C(=O)N(C1CCC(=O)NC1=O)C2 (stereo not drawn)"
  TESTED ON: "Cyclin E1 (Homo sapiens, UniProt P24864+Q96SW2)"
  Ratio of GSPT1 DC50/Cyclin E1 DC50: ">77"
- COMPOUND: "COc1c(COC(=O)Nc2ccc(Oc3cc(F)c(F)c(F)c3)cc2F)ccc2c1C(=O)N(C1CCC(=O)NC1=O)C2 (stereo not drawn)"
  TESTED ON: "Cyclin E1 (Homo sapiens, UniProt P24864+Q96SW2)"
  Ratio of GSPT1 DC50/Cyclin E1 DC50: ">395"
- COMPOUND: "CCOc1c(COC(=O)Nc2ccc(Oc3cccc(Cl)c3)cc2)ccc2c1C(=O)N(C1CCC(=O)NC1=O)C2 (stereo not drawn)"
  TESTED ON: "Cyclin E1 (Homo sapiens, UniProt P24864+Q96SW2)"
  Ratio of GSPT1 DC50/Cyclin E1 DC50: ">241"
- COMPOUND: "COCCOc1c(COC(=O)Nc2ccc(Oc3ccc(F)c(F)c3)cc2)ccc2c1C(=O)N(C1CCC(=O)NC1=O)C2 (stereo not drawn)"
  TESTED ON: "Cyclin E1 (Homo sapiens, UniProt P24864+Q96SW2)"
  Ratio of GSPT1 DC50/Cyclin E1 DC50: ">226"
- COMPOUND: "O=C1CCC(N2Cc3ccc(COC(=O)Nc4ccc(Oc5cc(F)cc(F)c5)cc4F)c(O[C@@H]4CCCOC4)c3C2=O)C(=O)N1 (stereo partly drawn)"
  TESTED ON: "Cyclin E1 (Homo sapiens, UniProt P24864+Q96SW2)"
  Ratio of GSPT1 DC50/Cyclin E1 DC50: ">209"
- COMPOUND: "CC(C)Oc1c(COC(=O)Nc2ccc(Oc3ccc(F)cc3)cc2)ccc2c1C(=O)N(C1CCC(=O)NC1=O)C2 (stereo not drawn)"
  TESTED ON: "Cyclin E1 (Homo sapiens, UniProt P24864+Q96SW2)"
  Ratio of GSPT1 DC50/Cyclin E1 DC50: ">107"
- COMPOUND: "O=C1CCC(N2Cc3ccc(COC(=O)Nc4ccc(Oc5ccccc5Cl)cc4)c(OC4CCC4)c3C2=O)C(=O)N1 (stereo not drawn)"
  TESTED ON: "Cyclin E1 (Homo sapiens, UniProt P24864+Q96SW2)"
  Ratio of GSPT1 DC50/Cyclin E1 DC50: ">111"
- COMPOUND: "CC(C)Oc1c(COC(=O)Nc2ccc(Oc3cccc(F)c3)cc2)ccc2c1C(=O)N(C1CCC(=O)NC1=O)C2 (stereo not drawn)"
  TESTED ON: "Cyclin E1 (Homo sapiens, UniProt P24864+Q96SW2)"
  Ratio of GSPT1 DC50/Cyclin E1 DC50: ">107"
- COMPOUND: "COc1c(COC(=O)Nc2ccc(Oc3cc(F)c(F)c(F)c3)cc2C)ccc2c1C(=O)N(C1CCC(=O)NC1=O)C2 (stereo not drawn)"
  TESTED ON: "Cyclin E1 (Homo sapiens, UniProt P24864+Q96SW2)"
  Ratio of GSPT1 DC50/Cyclin E1 DC50: ">339"
- COMPOUND: "CC(C)(O)COc1c(COC(=O)Nc2ccc(Oc3ccc(F)c(F)c3)cc2)ccc2c1C(=O)N(C1CCC(=O)NC1=O)C2 (stereo not drawn)"
  TESTED ON: "Cyclin E1 (Homo sapiens, UniProt P24864+Q96SW2)"
  Ratio of GSPT1 DC50/Cyclin E1 DC50: ">937"
- COMPOUND: "COc1cc(Oc2ccc(F)c(C)c2)ccc1NC(=O)OCc1ccc2c(c1OC)C(=O)N(C1CCC(=O)NC1=O)C2 (stereo not drawn)"
  TESTED ON: "Cyclin E1 (Homo sapiens, UniProt P24864+Q96SW2)"
  Ratio of GSPT1 DC50/Cyclin E1 DC50: ">39"
- COMPOUND: "COc1c(COC(=O)Nc2ccc(Oc3cc(F)cc(F)c3)cc2F)ccc2c1C(=O)N(C1CCC(=O)NC1=O)C2 (stereo not drawn)"
  TESTED ON: "Cyclin E1 (Homo sapiens, UniProt P24864+Q96SW2)"
  Ratio of GSPT1 DC50/Cyclin E1 DC50: ">358"
- COMPOUND: "COc1c(COC(=O)Nc2ccc(Oc3cccc4ccccc34)cc2)ccc2c1C(=O)N(C1CCC(=O)NC1=O)C2 (stereo not drawn)"
  TESTED ON: "Cyclin E1 (Homo sapiens, UniProt P24864+Q96SW2)"
  Ratio of GSPT1 DC50/Cyclin E1 DC50: ">74"
- COMPOUND: "CCOc1c(COC(=O)Nc2ccc(Oc3ccc(F)c(F)c3)cc2)ccc2c1C(=O)N(C1CCC(=O)NC1=O)C2 (stereo not drawn)"
  TESTED ON: "Cyclin E1 (Homo sapiens, UniProt P24864+Q96SW2)"
  Ratio of GSPT1 DC50/Cyclin E1 DC50: ">80"
- COMPOUND: "CC(C)(O)COc1c(COC(=O)Nc2ccc(Oc3ccccc3)cc2)ccc2c1C(=O)N(C1CCC(=O)NC1=O)C2 (stereo not drawn)"
  TESTED ON: "Cyclin E1 (Homo sapiens, UniProt P24864+Q96SW2)"
  Ratio of GSPT1 DC50/Cyclin E1 DC50: ">615"
- COMPOUND: "COc1c(COC(=O)Nc2ccc(Oc3ccccc3F)cc2)ccc2c1C(=O)N(C1CCC(=O)NC1=O)C2 (stereo not drawn)"
  TESTED ON: "Cyclin E1 (Homo sapiens, UniProt P24864+Q96SW2)"
  Ratio of GSPT1 DC50/Cyclin E1 DC50: ">37"
- COMPOUND: "O=C1CCC(N2Cc3ccc(COC(=O)Nc4ccc(Oc5ccc(F)cc5F)cc4)c(Oc4ccccc4)c3C2=O)C(=O)N1 (stereo not drawn)"
  TESTED ON: "Cyclin E1 (Homo sapiens, UniProt P24864+Q96SW2)"
  Ratio of GSPT1 DC50/Cyclin E1 DC50: ">125"
- COMPOUND: "COc1c(COC(=O)Nc2ccc(Oc3ccccc3C(F)(F)F)cc2Cl)ccc2c1C(=O)N(C1CCC(=O)NC1=O)C2 (stereo not drawn)"
  TESTED ON: "Cyclin E1 (Homo sapiens, UniProt P24864+Q96SW2)"
  Ratio of GSPT1 DC50/Cyclin E1 DC50: ">70"
- COMPOUND: "O=C1CCC(N2Cc3ccc(COC(=O)Nc4ccc(Oc5ccc(F)c(F)c5)cc4)c(Oc4ccccc4)c3C2=O)C(=O)N1 (stereo not drawn)"
  TESTED ON: "Cyclin E1 (Homo sapiens, UniProt P24864+Q96SW2)"
  Ratio of GSPT1 DC50/Cyclin E1 DC50: ">124"
- COMPOUND: "COc1cc(Oc2ccc(F)cc2OC)ccc1NC(=O)OCc1ccc2c(c1OC)C(=O)N(C1CCC(=O)NC1=O)C2 (stereo not drawn)"
  TESTED ON: "Cyclin E1 (Homo sapiens, UniProt P24864+Q96SW2)"
  Ratio of GSPT1 DC50/Cyclin E1 DC50: ">30"
- COMPOUND: "COc1c(COC(=O)Nc2ccc(Oc3ccc(F)c(Cl)c3)cc2)ccc2c1C(=O)N(C1CCC(=O)NC1=O)C2 (stereo not drawn)"
  TESTED ON: "Cyclin E1 (Homo sapiens, UniProt P24864+Q96SW2)"
  Ratio of GSPT1 DC50/Cyclin E1 DC50: ">239"
- COMPOUND: "O=C1CCC(N2Cc3ccc(COC(=O)Nc4ccc(Oc5ccc(F)c(F)c5)cc4)c(O[C@H]4CC[C@@H](O)CC4)c3C2=O)C(=O)N1 (stereo partly drawn)"
  TESTED ON: "Cyclin E1 (Homo sapiens, UniProt P24864+Q96SW2)"
  Ratio of GSPT1 DC50/Cyclin E1 DC50: ">1,042"
- COMPOUND: "COc1c(COC(=O)Nc2ccc(Oc3cccc(Cl)c3)cc2F)ccc2c1C(=O)N(C1CCC(=O)NC1=O)C2 (stereo not drawn)"
  TESTED ON: "Cyclin E1 (Homo sapiens, UniProt P24864+Q96SW2)"
  Ratio of GSPT1 DC50/Cyclin E1 DC50: ">145"
- COMPOUND: "O=C1CCC(N2Cc3ccc(COC(=O)Nc4ccc(Oc5ccc(F)cc5F)cc4F)c(O[C@@H]4CCCOC4)c3C2=O)C(=O)N1 (stereo partly drawn)"
  TESTED ON: "Cyclin E1 (Homo sapiens, UniProt P24864+Q96SW2)"
  Ratio of GSPT1 DC50/Cyclin E1 DC50: ">423"
